READOUT: melting point (°C)

Please give the measured melting point for this compound: Cc1ccc(CNc2ccc3c(CNC(=O)c4ccc(F)cc4)cccc3n2)o1
173

Now consider COc1ccccc1CNc1ccc2c(-c3noc(C)n3)cccc2n1 and answer again.
121.5

What do you get for COc1ccccc1CNc1ccc2c(CNC(=O)c3ccc(F)cc3)cccc2n1 ?
162.5

What do we get for COc1ccccc1CNc1ccc2c(C(=N)c3ccc(F)cc3)cccc2n1 ?
155

* * *

Target: recombinant human 5-HT5A receptor (Homo sapiens)
Construct: membranes
Assay: [3H]LSD radioligand binding assay
Details: [3H]LSD approx. 1 nM; membranes from HEK-EBNA cells transiently expressing 5-HT5A; Ki from IC50 by Cheng-Prussoff
pKi: −log10 of the molar value.
READOUT: pKi

Which pKi value is on record for O=S(=O)(Nc1cccc2nc(Nc3cccc(C4CC4)c3)ccc12)c1cc(F)cc(F)c1 ?
7.55

Now give it for COc1ccccc1CNc1ccc2c(C(=NO)c3ccc(F)cc3)cccc2n1 too.
8.14

Now this one: Cc1nc[nH]c1CNc1cccc2nc(Nc3cccc(C4CC4)c3)ccc12
7.47

a: COc1ccccc1CNc1ccc2c(NCc3cccnc3)cccc2n1
b: CSc1ccccc1CNc1ccc2c(NS(=O)(=O)c3ccc(F)cc3)cccc2n1
Identify the entry with the smaller pKi: a or b . Output the label that corresponds to your choice.
b

I: CC(Nc1cccc2nc(Nc3cccc4c3OC(C)(C)C4)ccc12)c1cccnc1 (racemic)
II: Cc1ccc(CNc2ccc3c(NS(=O)(=O)c4cccc(F)c4)cccc3n2)o1
III: Cc1nc[nH]c1CNc1cccc2nc(Nc3cccc4c3OC(C)(C)C4)ccc12
IV: Cc1ccc(CNc2ccc3c(CNc4cccnc4)cccc3n2)o1
Put the items in order so that reported pKi rises from first to last. Give me the labels in the order the question wants.
IV, II, I, III

A: Cc1ccc(CNc2ccc3c(NS(=O)(=O)c4cc(F)cc(F)c4)cccc3n2)s1
B: COc1ccccc1CNc1ccc2c(NCc3cc[nH]n3)cccc2n1
# query: argmin of pKi over A and B Please indicate the selected item by its label.
B

* * *

Target: recombinant human 5-HT5A receptor (Homo sapiens)
Construct: membranes
Experiment: [3H]LSD radioligand binding assay
Conditions: [3H]LSD approx. 1 nM; membranes from HEK-EBNA cells transiently expressing 5-HT5A; Ki from IC50 by Cheng-Prussoff
READOUT: Ki (nM)

Some compounds with recorded Ki:
Consider the compound shown here: Cc1ccc(CNc2ccc3c(NCc4cnn[nH]4)cccc3n2)o1 What is its recorded Ki?
35.3

Do the same for COc1ccccc1CNc1ccc2c(C(=O)c3ccc(F)cc3)cccc2n1 please
50.9

Another compound: Cc1ccc(CNc2ccc3c(NCc4nc[nH]c4C)cccc3n2)o1
14.4

Now the same for Cc1ccc(CNc2ccc3c(NS(=O)(=O)Nc4ccc(F)cc4)cccc3n2)o1
25.5

I: COc1ccccc1CNc1ccc2c(NCc3[nH]cnc3C)cccc2n1
II: Cc1cc2cccc(Nc3ccc4c(NS(=O)(=O)c5cc(F)cc(F)c5)cccc4n3)c2o1
III: COc1ccccc1CNc1ccc2c(NCc3c[nH]nn3)cccc2n1
# ascending order, key=Ki Output the labels ranked as instructed.
I, III, II
(I: 19.4 nM, III: 30.4 nM, II: 50.6 nM)

* * *

Target: recombinant human 5-HT5A receptor (Homo sapiens, UniProt P47898)
Construct: membranes
Sequence (P47898 whole entry): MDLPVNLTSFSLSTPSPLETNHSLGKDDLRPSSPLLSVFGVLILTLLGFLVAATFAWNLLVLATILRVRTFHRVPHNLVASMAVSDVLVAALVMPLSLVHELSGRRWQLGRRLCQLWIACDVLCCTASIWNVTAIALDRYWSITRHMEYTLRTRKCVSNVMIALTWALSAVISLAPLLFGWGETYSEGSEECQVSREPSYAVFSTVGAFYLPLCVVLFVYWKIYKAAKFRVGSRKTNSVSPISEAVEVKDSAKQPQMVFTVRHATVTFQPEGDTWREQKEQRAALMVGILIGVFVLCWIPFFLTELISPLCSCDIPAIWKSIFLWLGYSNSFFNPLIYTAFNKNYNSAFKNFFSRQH
Experiment: [3H]LSD radioligand binding assay
Settings: [3H]LSD approx. 1 nM; membranes from HEK-EBNA cells transiently expressing 5-HT5A; Ki from IC50 by Cheng-Prussoff
READOUT: Ki (nM)

Item under review: Cc1ccc(CNc2ccc3c(N[C@H]4CCS(=O)(=O)c5ccccc54)cccc3n2)o1 . Reported Ki?
14.7

1: COc1ccccc1CNc1ccc2c(NCc3cnc[nH]3)cccc2n1
2: Cc1ccc(CNc2ccc3c(Nc4ccc(Cl)cc4)cccc3n2)o1
// returns 1 or 2 , whichever has the lower Ki // return label of chosen record
2

Data origin, for the record: patent US7825253B2
